Listing of IC50 toward DGKζ (Homo sapiens, UniProt Q13574), each taken from a published source.

Cn1c(=O)cc(N(C)[C@H]2CC[C@@H](N(CC3CCC3)c3cc(F)cc(F)c3)CC2)c2nc(C#N)ccc21
100 to 1000 nM
C[C@@H]1CN(c2cc(=O)n(C)c3ccc(C#N)nc23)[C@@H](C)CN1C(C(=O)N1CCOCC1)c1ccc(F)cc1 (some centres unmarked)
7750 nM
COc1cc(N(C2CC2)[C@H]2CC[C@@H](N(C)c3c(C#N)c(=O)n(C)c4ccc(C#N)nc34)CC2)ccc1F
10 to 100 nM
Cn1c(=O)cc(N(C)[C@H]2CC[C@@H](N(CC3CC3)c3ccc4c(c3)COC4)CC2)c2nc(C#N)ccc21
100 to 1000 nM
Cn1c(=O)cc(N(C)[C@H]2CC[C@@H](N(C(=O)C3CC3)c3ccc(F)cc3)CC2)c2nc(C#N)ccc21
≥ 1000 nM
Cn1c(=O)c(C#N)c(N(C)[C@H]2CC[C@@H](N(CC3CC3)c3ccc4c(c3)COC4)CC2)c2nc(C#N)ccc21
≥ 1000 nM
COc1cc(F)ccc1N(C)[C@H]1CC[C@@H](N(C)c2c(C#N)c(=O)n(C)c3ccc(Cl)nc23)CC1
100 to 1000 nM
Cn1c(=O)c(C#N)c(N(C)[C@H]2CC[C@@H](N(CC3CC3)c3ccc4c(c3)C(=O)NC4)CC2)c2nc(C#N)ccc21
≥ 1000 nM
C[C@@H]1CN(c2cc(=O)n(C)c3ccc(C#N)nc23)[C@@H](C)CN1C(C(=O)N1CCN(C)CC1)c1ccc(F)cc1 (some centres unmarked)
172000 nM
COc1cc(F)ccc1N(CC1CCC1)[C@H]1CC[C@H](N(C)c2c(C#N)c(=O)n(C)c3ccc(C#N)nc23)CC1
10 to 100 nM

I would be grateful if you could provide IC50 for each of the following entries.
1. Cc1ccc(N(CC2CCC2)[C@H]2CC[C@@H](N(C)c3c(C#N)c(=O)n(C)c4ccc(C#N)nc34)CC2)cc1OC(F)F
2. Cn1c(=O)c(C#N)c(N(C)[C@H]2CC[C@@H](N(CC3CCCOC3)c3ccc(F)cc3)CC2)c2nc(C#N)ccc21 (relative stereo)
3. Cn1c(=O)cc(N(C)[C@H]2CC[C@@H](N(CC3CCOC3)c3ccc(F)c(OC(F)F)c3)CC2)c2nc(C#N)ccc21 (some centres unmarked)

Key:
1: 10 to 100 nM; 2: 10 to 100 nM; 3: 100 to 1000 nM

Exercise: Fill in: IC50 of CCn1ccc2c(CN3CCN(c4c([N+](=O)[O-])c(=O)n(C)c5ccc(F)cc45)CC3)cccc21 is ___
Key: 7900 nM
